- test-target: UniProtKB P0DTD1
- assay-name: biochemical
- condition-summary: 100 µM; inhibitor
Structures can show the parent of a compound that is named as a salt.
readout-kind: %inhibition (%)
Numbers only, in %.

Study these solved cases before continuing.
{"molecule": "CN1CCN(c2ccc3nc(-c4c(N)c5c(F)cccc5[nH]c4=O)[nH]c3c2)CC1 [Dovitinib (TKI-258, CHIR-258)]", "readout-kind": "%inhibition", "numeric-value": 50.41}
{"molecule": "CC1(C)S[C@@H]2[C@H](NC(=O)[C@H](N)c3ccc(O)cc3)C(=O)N2[C@H]1C(=O)O [Amoxicillin]", "readout-kind": "%inhibition", "numeric-value": 9.546}
{"molecule": "Nc1nc2[nH]cc(CCc3ccc(C(=O)N[C@@H](CCC(=O)O)C(=O)O)cc3)c2c(=O)[nH]1 [Pemetrexed]", "readout-kind": "%inhibition", "numeric-value": 4.612}
{"molecule": "CCN(CCO)CCCC(C)Nc1ccnc2cc(Cl)ccc12 (stereo not drawn) [Hydroxychloroquine Sulfate]", "readout-kind": "%inhibition", "numeric-value": 0}
{"molecule": "Nc1ccc(S(=O)(=O)Nc2ncccn2)cc1 [Sodium sulfadiazine]", "readout-kind": "%inhibition", "numeric-value": 0}
{"molecule": "C[C@H]1COc2c(N3CCN(C)CC3)c(F)cc3c(=O)c(C(=O)O)cn1c23 [Levofloxacin hydrate]", "readout-kind": "%inhibition", "numeric-value": 0}
{"molecule": "COc1cc(Nc2ncc(F)c(Nc3ccc4c(n3)N(COP(=O)(O)O)C(=O)C(C)(C)O4)n2)cc(OC)c1OC [R788 (Fostamatinib) Disodium]", "readout-kind": "%inhibition", "numeric-value": 15.48}
{"molecule": "CC1(C)S[C@@H]2[C@H](NC(=O)Cc3ccccc3)C(=O)N2[C@H]1C(=O)O [Benzylpenicillin potassium]", "readout-kind": "%inhibition", "numeric-value": 8.229}

// below: %inhibition requested for another molecule
According to the records, this molecule CCOC(=O)Nc1ccc(NCc2ccc(F)cc2)cc1N [Retigabine] displays %inhibition of 0
